// data source = the Human Domainome abundance scans (Beltran et al. 2025)

B1: Poly(rC)-binding protein 1, residues 278 to 350; numbered along this chain, Q15365 (parent)
chain: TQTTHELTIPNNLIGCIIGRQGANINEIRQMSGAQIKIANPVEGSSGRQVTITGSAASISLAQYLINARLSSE

- Variants of: B1
- run_description: abundance fitness (aPCA) (normalised: wild type 0, dead -1); higher = more abundant; growth selection in yeast, the domain comes from the species named
- condition_summary: Homo sapiens
# abundance fitness >= -0.5 gives Y, anything below gives N

mutation_spec | category_label
G54M | N
V50W | N
N26P | N

Req: Can S55D be said to have abundance fitness at or above -0.5?
Resp: Y

Req: Can P41Y be said to have abundance fitness at or above -0.5?
Resp: Y

Req: Can I66Q be said to have abundance fitness at or above -0.5?
Resp: N
